test system: S. aureus Col(Meth^R)(lac^-)
Counter-ions that a name gives are not always drawn.
Just a reminder that ties go to Not met: only MIC strictly below 2 µg/mL counts as Met.

Worked examples follow.
molecule="NCC#CCc1cnccc1SC1=C(C(=O)O)N2C(=O)[C@@H](NC(=O)/C(=N\\O)c3nc(N)sc3Cl)[C@H]2SC1 [Cmpd 48, trifluoroacetic acid salt]" assigned_label="Not met"
molecule="NCCSCc1cnccc1SC1=C(C(=O)O)N2C(=O)[C@@H](NC(=O)/C(=N\\OC3CCCC3)c3csc(N)n3)[C@H]2SC1 [Cmpd 13, trifluoroacetic acid salt]" assigned_label="Not met"
molecule="CC(C)(N)CSCc1cnccc1SC1=C(C(=O)O)N2C(=O)[C@@H](NC(=O)/C(=N\\O)c3nc(N)sc3Cl)[C@H]2SC1 [Cmpd 62, trifluoroacetic acid salt]" assigned_label="Not met"
molecule="Nc1nc(/C(=N/O)C(=O)N[C@@H]2C(=O)N3C(C(=O)O)=C(Sc4ccncc4CSC4CCNC4)CS[C@H]23)c(Cl)s1 (stereo partly shown) [Cmpd 42, trifluoroacetic acid salt]" assigned_label=Met
molecule="N=C(N)SCc1nnsc1SC1=C(C(=O)O)N2C(=O)[C@@H](NC(=O)/C(=N\\O)c3csc(N)n3)[C@H]2SC1 [Cmpd 4, trifluoroacetic acid salt]" assigned_label="Not met"
molecule="NCC(O)CSCc1cnccc1SC1=C(C(=O)O)N2C(=O)[C@@H](NC(=O)/C(=N\\O)c3nc(N)sc3Cl)[C@H]2SC1 (stereo partly shown) [Cmpd 32, trifluoroacetic acid salt]" assigned_label=Met
molecule="CC(C)(CN)SCc1cnccc1SC1=C(C(=O)O)N2C(=O)[C@@H](NC(=O)/C(=N\\O)c3csc(N)n3)[C@H]2SC1 [Cmpd 19, trifluoroacetic acid salt]" assigned_label="Not met"
molecule="N=C(N)SCc1nnsc1SC1=C(C(=O)O)N2C(=O)[C@@H](NC(=O)Cc3ccccc3)[C@H]2SC1 [Cmpd 2, trifluoroacetic acid salt]" assigned_label=Met
molecule="N=C(N)SCc1ncsc1SC1=C(C(=O)O)N2C(=O)[C@@H](NC(=O)/C(=N\\O)c3csc(N)n3)[C@H]2SC1 [Cmpd 7, trifluoroacetic acid salt]" assigned_label="Not met"
molecule="NCCSCc1cnccc1SC1=C(C(=O)O)N2C(=O)[C@@H](NC(=O)/C(=N\\OCCF)c3nc(N)sc3Cl)[C@H]2SC1.O=C(O)C(F)(F)F [Cmpd 33]" assigned_label=Met

Qu. Item NCCCSCc1cnccc1SC1=C(C(=O)O)N2C(=O)[C@@H](NC(=O)/C(=N\O)c3nc(N)sc3Cl)[C@H]2SC1 [Cmpd 27, trifluoroacetic acid salt] : MIC beneath 2 µg/mL, strictly?
Ans. Met

Qu. Item CN(C)C(=O)[C@@H](N)CSCc1cnccc1SC1=C(C(=O)O)N2C(=O)[C@@H](NC(=O)/C(=N\O)c3nc(N)sc3Cl)[C@H]2SC1 [Cmpd 58, trifluoroacetic acid salt] : MIC beneath 2 µg/mL, strictly?
Ans. Not met

Qu. Item CN(C)C(=O)CNCCSCc1cnccc1SC1=C(C(=O)O)N2C(=O)[C@@H](NC(=O)/C(=N\O)c3nc(N)sc3Cl)[C@H]2SC1 [Cmpd 61, trifluoroacetic acid salt] : MIC beneath 2 µg/mL, strictly?
Ans. Not met

====

system: S. aureus strain ATCC 13709 (methicillin-susceptible); test: Murine model for lethal bacteremic peritonitis; format: in vivo, female Swiss-Webster mice; details: Staphylococcus aureus, ATCC13709; Dose 2.5 mg/kg, SC, 72 h; read-out: Survivors
Where a name gives a salt, the structure may show the parent alone.
Let's look at some molecules and their measured responders at 2.5 mg/kg.
Kindly answer with a numeric value in %, unit omitted.

molecule="Nc1nc(/C(=N/O)C(=O)N[C@@H]2C(=O)N3C(C(=O)O)=C(Sc4ccncc4SCCNC=O)CS[C@H]23)c(Cl)s1 [Cmpd 64, trifluoroacetic acid salt]" readout_kind="responders at 2.5 mg/kg" reported_value=40

Qu. Using the record for NCC(=O)NCCSCc1cnccc1SC1=C(C(=O)O)N2C(=O)[C@@H](NC(=O)/C(=N\O)c3nc(N)sc3Cl)[C@H]2SC1 [Cmpd 29, trifluoroacetic acid salt] , report its responders at 2.5 mg/kg.
Ans. 90

Qu. Using the record for NC(=O)[C@@H](N)CSCc1cnccc1SC1=C(C(=O)O)N2C(=O)[C@@H](NC(=O)/C(=N\O)c3nc(N)sc3Cl)[C@H]2SC1 [Cmpd 59, trifluoroacetic acid salt] , report its responders at 2.5 mg/kg.
Ans. 40

====

Where a name gives a salt, the structure may show the parent alone.
Entries below carry reported MIC on S. aureus Col(Meth^R)(lac^-).
Kindly answer with a numeric value in µg/mL, unit omitted.

The examples below pair each entry with its known result.
molecule="N=C(N)NCCSCc1cnccc1SC1=C(C(=O)O)N2C(=O)[C@@H](NC(=O)/C(=N\\O)c3csc(N)n3)[C@H]2SC1 [Cmpd 14, trifluoroacetic acid salt]" tgt="S. aureus Col(Meth^R)(lac^-)" readout_kind=MIC reported_value=4
molecule="NCCCCCOCc1cnccc1SC1=C(C(=O)O)N2C(=O)[C@@H](NC(=O)/C(=N\\O)c3nc(N)sc3Cl)[C@H]2SC1 [Cmpd 44, trifluoroacetic acid salt]" tgt="S. aureus Col(Meth^R)(lac^-)" readout_kind=MIC reported_value=4
molecule="Nc1nc(/C(=N/O)C(=O)N[C@@H]2C(=O)N3C(C(=O)O)=C(Sc4ccncc4CSCC(N)CO)CS[C@H]23)c(Cl)s1 (some centres unmarked) [Cmpd 56, trifluoroacetic acid salt]" tgt="S. aureus Col(Meth^R)(lac^-)" readout_kind=MIC reported_value=2
molecule="CN(C)C(=O)[C@@H]1CC(SCc2cnccc2SC2=C(C(=O)O)N3C(=O)[C@@H](NC(=O)/C(=N\\O)c4nc(N)sc4Cl)[C@H]3SC2)CN1 (some centres unmarked) [Cmpd 55, trifluoroacetic acid salt]" tgt="S. aureus Col(Meth^R)(lac^-)" readout_kind=MIC reported_value=4

Next molecule, please.
Qu. Using the record for Nc1nc(/C(=N/O)C(=O)N[C@@H]2C(=O)N3C(C(=O)O)=C(Sc4ccncc4CSC4CCNC4)CS[C@H]23)cs1 (some centres unmarked) [Cmpd 17, trifluoroacetic acid salt] , report its MIC.
Ans. 2

====

tested on: E. faecium A491(Amp^R)
Where a name gives a salt, the structure may show the parent alone.
Let's look at some compounds and their measured MIC.
Kindly answer with a numeric value in µg/mL, unit omitted.

The examples below pair each entry with its known result.
compound="Nc1nc(/C(=N/O)C(=O)N[C@@H]2C(=O)N3C(C(=O)O)=C(Sc4ccncc4CSC[C@H](N)CO)CS[C@H]23)c(Cl)s1 [Cmpd 65, trifluoroacetic acid salt]" reported_value=16
compound="NCC(=O)NCCCSCc1cnccc1SC1=C(C(=O)O)N2C(=O)[C@@H](NC(=O)/C(=N\\O)c3nc(N)sc3Cl)[C@H]2SC1 [Cmpd 35, trifluoroacetic acid salt]" reported_value=4
compound=CNCCNCCSCc1nnsc1SC1=C(C(=O)O)N2C(=O)[C@@H](NC(=O)/C(=N\OCCF)c3nc(N)sc3Cl)[C@H]2SC1.O=C(O)C(F)(F)F reported_value=16

Qu. Using the record for N=CNCCCSCc1cnccc1SC1=C(C(=O)O)N2C(=O)[C@@H](NC(=O)/C(=N\O)c3nc(N)sc3Cl)[C@H]2SC1 [Cmpd 34, trifluoroacetic acid salt] , report its MIC.
Ans. 4

Qu. Using the record for NCCCSCc1cnccc1SC1=C(C(=O)O)N2C(=O)[C@@H](NC(=O)/C(=N\O)c3nc(N)sc3Cl)[C@H]2SC1 [Cmpd 27, trifluoroacetic acid salt] , report its MIC.
Ans. 4

Qu. Using the record for NCCCCOCc1cnccc1SC1=C(C(=O)O)N2C(=O)[C@@H](NC(=O)/C(=N\O)c3nc(N)sc3Cl)[C@H]2SC1 [Cmpd 46, trifluoroacetic acid salt] , report its MIC.
Ans. 16

====

Entries below carry reported MIC on S. aureus ATCC 29213.
Structures can show the parent of a compound that is named as a salt.
Kindly answer with a numeric value in µg/mL, unit omitted.

The examples below pair each entry with its known result.
compound=NCCSCc1cnccc1SC1=C(C(=O)O)N2C(=O)[C@@H](NC(=O)/C(=N\O)c3ccccc3)[C@H]2SC1.O=C(O)C(F)(F)F readout_kind=MIC reported_value=0.13
compound="N=C(N)SCc1cnccc1SC1=C(C(=O)O)N2C(=O)[C@@H](NC(=O)Cc3ccccc3)[C@H]2SC1 [Cmpd 1, trifluoroacetic acid salt]" readout_kind=MIC reported_value=0.13
compound="NCCSCc1nnsc1SC1=C(C(=O)O)N2C(=O)[C@@H](NC(=O)/C(=N\\O)c3csc(N)n3)[C@H]2SC1 [Cmpd 38, trifluoroacetic acid salt]" readout_kind=MIC reported_value=0.13

Next compound, please.
Qu. Using the record for NCCCCCOCc1cnccc1SC1=C(C(=O)O)N2C(=O)[C@@H](NC(=O)/C(=N\O)c3nc(N)sc3Cl)[C@H]2SC1 [Cmpd 44, trifluoroacetic acid salt] , report its MIC.
Ans. 0.5

All figures here come from patent US6087355A.
